src = patent US20100144601A1

molecular target: T1, recombinant TNFα, biotinylated (human, UniProt P01375 77-233, biotinylated using sulfo-NHS-LC-Biotin (sites not given)); assay: ELISA of lysates on biotinylated TNFα on streptavidin plate
T1 construct: human is stated in the abstract and claims; also called biotinylated TNFα; human TNFα
T1 sequence (P01375 77-233 limits assumed): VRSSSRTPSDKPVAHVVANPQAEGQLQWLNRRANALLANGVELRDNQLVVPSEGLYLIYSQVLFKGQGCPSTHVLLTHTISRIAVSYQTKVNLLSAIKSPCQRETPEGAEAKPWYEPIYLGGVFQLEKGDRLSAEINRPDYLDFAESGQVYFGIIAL
attribute measured: binding result

>  <binder>
Clone No. 70 (designed binder, F:G EWRVQVA) LPAPKNLVVSEVTEDSLRLSWTAPDAAFDSFLIQYQESEKVGEAINLTVPGSERSYDLTGLKPGTEYTVSIYGVEWRVQVAPLSAEFTT

>  <attribute measured>
binding result

>  <recorded measurement>
binds

$$$$
>  <binder>
Clone No. 69 (designed binder, F:G VLSVLQR) LPAPKNLVVSEVTEDSLRLSWTAPDAAFDSFLIQYQESEKVGEAINLTVPGSERSYDLTGLKPGTEYTVSIYGVVLSVLQRPLSAEFTT

>  <attribute measured>
binding result

>  <recorded measurement>
binds

$$$$
>  <binder>
Clone No. 9 (designed binder, F:G GGLSYFH) LPAPKNLVVSEVTEDSLRLSWTAPDAAFDSFLIQYQESEKVGEAINLTVPGSERSYDLTGLKPGTEYTVSIYGVGGLSYFHPLSAEFTT

>  <attribute measured>
binding result

>  <recorded measurement>
binds

$$$$
